system: TFEB; assay: TFEB nuclear translocation assay, HeLa wt cells; assay type: cell-based; details: Homo sapiens, HeLa, 2 h, 2 hrs compound treatment, Table 1 does not say HeLa wt or TRPML1 KO
Please provide measured AC50 for the entries that follow.

{"MOLECULE": "CN(C)S(=O)(=O)c1ccc(S(=O)(=O)Nc2ccccc2N2CCC(C)(c3ccc(Cl)cc3F)CC2)cc1 [Compound A-204]", "VALUE KIND": "AC50", "OBSERVED VALUE": "≤ 2000 nM"}
{"MOLECULE": "COc1ccc(N2CCOCC2)c(NS(=O)(=O)c2ccc3c(c2)CCC3)c1 [Compound A-521]", "VALUE KIND": "AC50", "OBSERVED VALUE": "≤ 2000 nM"}
{"MOLECULE": "CN(C)S(=O)(=O)c1ccc(S(=O)(=O)Nc2ccccc2N2CCCN(C3CC3)CC2)cc1 [Compound A-484]", "VALUE KIND": "AC50", "OBSERVED VALUE": "2010 to 8000 nM"}
{"MOLECULE": "O=S(=O)(Nc1ccccc1N1CCC(c2ccc(Cl)cc2F)CC1)c1ccc(F)c(F)c1 [Compound A-80]", "VALUE KIND": "AC50", "OBSERVED VALUE": "2010 to 8000 nM"}
{"MOLECULE": "CC(C)OC(=O)N1CCN(c2ccccc2NS(=O)(=O)c2ccc(S(=O)(=O)N(C)C)cc2)CC1 [Compound A-336]", "VALUE KIND": "AC50", "OBSERVED VALUE": "≤ 2000 nM"}
{"MOLECULE": "CN(C)S(=O)(=O)c1ccc(S(=O)(=O)Nc2ccccc2N2CCC(C(=O)NC(C)(C)C)CC2)cc1 [Compound A-323]", "VALUE KIND": "AC50", "OBSERVED VALUE": "2010 to 8000 nM"}

Now take the following molecule into account.
Task item: Fill in the blank: the reported AC50 of CS(=O)(=O)c1ccc(S(=O)(=O)Nc2ccccc2N2CCC(O)(c3ccc(Cl)cc3F)CC2)cc1 [Compound A-142] is ____.
Reply: 2010 to 8000 nM

====

Please provide measured AC50 for the entries that follow.
system: TFEB; assay: TFEB nuclear translocation assay, HeLa wt cells; format: cell-based; details: Homo sapiens, HeLa, 2 h, 2 hrs compound treatment, Table 1 does not say HeLa wt or TRPML1 KO

Guide cases for AC50, answers given:
{"MOLECULE": "CC1(C)CC2(CCN(c3ccccc3NS(=O)(=O)c3ccc4c(c3)OC(C)(C)C4)CC2)CO1 [Compound A-720]", "TEST TARGET": "TFEB", "AC50": "2.01 to 8 µM"}
{"MOLECULE": "C[C@H]1COC[C@H](C)N1CC1CN(c2c(F)cccc2NS(=O)(=O)c2ccc(S(=O)(=O)N(C)C)cc2)C1 (stereo in doubt) [Compound A-916]", "TEST TARGET": "TFEB", "AC50": "≥ 10 µM"}
{"MOLECULE": "CS(=O)(=O)c1ccc(S(=O)(=O)Nc2cc(F)ccc2N2CCC(c3c(F)cccc3F)CC2)cc1 [Compound A-154]", "TEST TARGET": "TFEB", "AC50": "≤ 2 µM"}

For each listed entry, give its AC50.
1. O=S(=O)(Nc1cccc(Cl)c1N1CCC(c2ccc(Cl)cc2F)CC1)c1ccc2c(c1)CCC2 [Compound A-341]
2. COc1ccc(S(=O)(=O)Nc2ccccc2N2CCC(Oc3ccc(F)cc3F)CC2)cc1 [Compound A-196]
3. O=S(=O)(Nc1ccccc1N1CCN(c2ccc(Cl)cc2F)CC1)c1ccccn1 [Compound A-20]

Reply:
1. ≤ 2 µM
2. ≤ 2 µM
3. ≤ 2 µM

For each listed entry, give its AC50.
1. CN(C)S(=O)(=O)c1ccc(S(=O)(=O)Nc2cccc(F)c2N2CCC(N3CCC4(CCOC4)C3)CC2)cc1 (single isomer, unassigned) [Compound A-909]
2. CN(C)S(=O)(=O)c1ccc(S(=O)(=O)Nc2cccc(N3CCC(c4ccc(Cl)cc4F)CC3)c2)cc1 [Compound A-46]
3. C[S+]([O-])c1ccc(S(=O)(=O)Nc2ccccc2N2CCC(c3ccc(F)cc3F)CC2)cc1 (centres unmarked) [Compound A-160]
4. CN(C)S(=O)(=O)c1ccc(S(=O)(=O)Nc2ccccc2N2CCN(CC(C)(F)F)CC2)cc1 [Compound A-525]
5. CC(c1cccc(F)c1N1CCC(CN2CCC(F)(F)CC2)CC1)S(=O)(=O)c1ccc(C(F)F)cc1 (single isomer, unassigned) [Compound A-997]
6. COCC1(C)CCN(c2ccccc2NS(=O)(=O)Cc2cccc(C)c2)CC1 [Compound A-593]
7. COCC1(C)CCN(c2ccccc2NS(=O)(=O)Cc2ccc(F)cc2)CC1 [Compound A-580]
8. CCN1CCN(c2ccc(Cl)cc2NS(=O)(=O)c2ccc3c(c2)CCC3)C(=O)C1 [Compound A-314]

Reply:
1: 2.01 to 8 µM; 2: ≥ 10 µM; 3: 2.01 to 8 µM; 4: ≤ 2 µM; 5: ≤ 2 µM; 6: 2.01 to 8 µM; 7: 8.01 to 9.99 µM; 8: ≥ 10 µM

For each listed entry, give its AC50.
1. CN(C)S(=O)(=O)c1ccc(S(=O)(=O)N2CC(c3ccc(Cl)cc3F)Nc3ccccc32)cc1 (centres unmarked) [Compound A-171]
2. COCC1(C)CCN(c2ccccc2NS(=O)(=O)Cc2cccc(S(=O)(=O)N(C)C)c2)CC1 [Compound A-680]
3. O=S(=O)(Nc1cc(Cl)ccc1N1CC23CCC2(COC3)C1)c1ccc2c(c1)CCC2 (centres unmarked) [Compound A-344]

Reply:
2.01 to 8 µM
8.01 to 9.99 µM
2.01 to 8 µM

====

tested on: TFEB; assay: TFEB nuclear translocation assay, HeLa wt cells; assay type: cell-based; conditions: Homo sapiens, HeLa, 2 h, 2 hrs compound treatment, Table 1 does not say HeLa wt or TRPML1 KO
Please provide measured AC50 for the entries that follow.

Guide cases for AC50, answers given:
{"COMPOUND": "C[C@@H]1CN(CC2CCN(c3c(F)cccc3[C@H](C)S(=O)(=O)c3ccc(S(=O)(=O)N(C)C)cc3)CC2)C[C@H](C)O1 [Compound A-783]", "TEST TARGET": "TFEB", "VALUE KIND": "AC50", "OBSERVED VALUE": "≤ 2000 nM"}
{"COMPOUND": "CN(C)S(=O)(=O)c1ccc(S(=O)(=O)Nc2ccccc2N2CCN(C(=O)C(C)(F)F)CC2)cc1 [Compound A-446]", "TEST TARGET": "TFEB", "VALUE KIND": "AC50", "OBSERVED VALUE": "2010 to 8000 nM"}
{"COMPOUND": "COCC1(C)CCN(c2ccccc2NS(=O)(=O)c2cc(C3OCCO3)cs2)CC1 [Compound A-619]", "TEST TARGET": "TFEB", "VALUE KIND": "AC50", "OBSERVED VALUE": "2010 to 8000 nM"}
{"COMPOUND": "CC1(C)Cc2cc(S(=O)(=O)Nc3ccccc3N3CCCC4(CCCOC4)C3)ccc2O1 (stereo not shown) [Compound A-632]", "TEST TARGET": "TFEB", "VALUE KIND": "AC50", "OBSERVED VALUE": "≤ 2000 nM"}
{"COMPOUND": "COCC1(C)CCN(c2ccccc2NS(=O)(=O)Cc2ccc(OC)cc2)CC1 [Compound A-582]", "TEST TARGET": "TFEB", "VALUE KIND": "AC50", "OBSERVED VALUE": "2010 to 8000 nM"}
{"COMPOUND": "CN1CC2(CCN(c3ccccc3NS(=O)(=O)c3ccc(S(=O)(=O)N(C)C)cc3)CC2)c2cccnc21 [Compound A-331]", "TEST TARGET": "TFEB", "VALUE KIND": "AC50", "OBSERVED VALUE": "≤ 2000 nM"}

Now take the following compound into account.
Task item: Fill in the blank: the reported AC50 of CN(C)S(=O)(=O)c1ccc(S(=O)(=O)Nc2ccccc2N2CCC(c3ccccc3-c3nnn[nH]3)CC2)cc1 [Compound A-280] is ____.
Reply: ≥ 10000 nM

====

tested on: TFEB; experiment: TFEB nuclear translocation assay, HeLa wt cells; format: cell-based; conditions: Homo sapiens, HeLa, 2 h, 2 hrs compound treatment, Table 1 does not say HeLa wt or TRPML1 KO
VALUE KIND: AC50

{"COMPOUND": "O=S(=O)(Nc1ccccc1N1CCC(c2ccc(F)cc2F)CC1)c1ccc(S(=O)(=O)C(F)(F)F)cc1", "VALUE KIND": "AC50", "OBSERVED VALUE": "≤ 2 µM"}
{"COMPOUND": "O=S(=O)(Nc1ccccc1N1CCC(c2ccc(Cl)cc2F)CC1)c1cccc(F)c1", "VALUE KIND": "AC50", "OBSERVED VALUE": "≥ 10 µM"}
{"COMPOUND": "CC1(C)Cc2cc(S(=O)(=O)Nc3ccccc3N3CCC(C(C)(F)F)CC3)ccc2O1", "VALUE KIND": "AC50", "OBSERVED VALUE": "≤ 2 µM"}
{"COMPOUND": "C[C@@H]1CN(CC2CCN(c3c(F)cccc3NS(=O)(=O)c3ccc(C(F)(F)C4CC4)cc3)CC2)C[C@H](C)O1", "VALUE KIND": "AC50", "OBSERVED VALUE": "≤ 2 µM"}
{"COMPOUND": "CN(C)S(=O)(=O)c1ccc(S(=O)(=O)Nc2ccccc2N2CCCC3(CCCO3)C2)cc1 (stereo not drawn)", "VALUE KIND": "AC50", "OBSERVED VALUE": "≤ 2 µM"}

Now take the following compound into account.
Task item: Fill in the blank: the reported AC50 of `CN(C)S(=O)(=O)c1ccc(S(=O)(=O)Nc2ccccc2N2CCC(O)(c3ncccc3F)CC2)cc1` is ____.
Reply: 2.01 to 8 µM
